# PROTOCOL: Evaluation test of transdermal absorbability (skin penetrability) with a Franz diffusion cell
# Assay type: in vitro ADME
# TEST_SETTINGS: free basic drug, liquid preparation 2 w/w %, rat skin, 32° C.
// reported Penetrated Amount (amount of skin-penetrated drug during 3 hours) for each item listed
Express it in μg/cm^2; write the number only.

Example entries and their recorded answers appear below.
[[record]]
compound = "CN(C)CCC=C1c2ccccc2CCc2ccccc21 [amitriptyline, reference compound]"
reported_measurement = 7

[[record]]
compound = "CC(C)=CCN1CCC2(C)c3cc(O)ccc3CC1C2C (stereo not drawn) [pentazocine, reference compound]"
reported_measurement = 40

[[record]]
compound = "Cc1ccc(C(=O)C(C)CN2CCCCC2)cc1 (stereo not drawn) [tolperisone, reference compound]"
reported_measurement = 26

[[record]]
compound = "CCc1ccc(C(=O)C(C)CN2CCCCC2)cc1 (stereo not drawn) [eperisone, reference compound]"
reported_measurement = 14

[[record]]
compound = "CN(C)CCCN1c2ccccc2CCc2ccccc21"
reported_measurement = 10


Ask | Any idea what Penetrated Amount (amount of skin-penetrated drug during 3 hours) was measured for COc1cccc(C2(O)CCCCC2CN(C)C)c1 (stereo not drawn) [tramadol, reference compound] ?
Reply | 122

Source: patent US20180256495A1
